target: 72 kDa type IV collagenase (Homo sapiens)
Sequence (P08253 whole entry): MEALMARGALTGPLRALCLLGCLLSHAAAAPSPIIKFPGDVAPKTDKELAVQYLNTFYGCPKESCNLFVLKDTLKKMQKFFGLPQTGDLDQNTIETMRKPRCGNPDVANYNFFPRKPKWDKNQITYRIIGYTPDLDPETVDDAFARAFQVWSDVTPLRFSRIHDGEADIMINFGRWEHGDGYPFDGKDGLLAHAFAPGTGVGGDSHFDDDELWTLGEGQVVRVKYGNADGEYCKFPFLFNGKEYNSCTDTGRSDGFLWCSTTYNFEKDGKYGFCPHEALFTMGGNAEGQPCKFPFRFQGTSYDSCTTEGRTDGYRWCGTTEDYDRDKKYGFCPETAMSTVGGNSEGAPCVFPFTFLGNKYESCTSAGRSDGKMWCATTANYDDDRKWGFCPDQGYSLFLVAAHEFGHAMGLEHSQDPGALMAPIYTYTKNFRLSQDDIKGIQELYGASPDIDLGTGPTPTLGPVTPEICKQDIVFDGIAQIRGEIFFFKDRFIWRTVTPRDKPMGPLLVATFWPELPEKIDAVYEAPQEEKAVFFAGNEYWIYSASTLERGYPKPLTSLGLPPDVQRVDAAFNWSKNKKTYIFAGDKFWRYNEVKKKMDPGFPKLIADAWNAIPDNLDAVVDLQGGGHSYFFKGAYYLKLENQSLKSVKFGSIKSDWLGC
pIC50: −log10 of the molar value.
measurement_label: pIC50

Here's what some known entries look like.
>>> value("O=C(NO)C1(S(=O)(=O)c2ccc(N3CCN(c4ccc(C(F)(F)F)cc4)CC3)cc2)CCOCC1")
7.92
>>> value("O=C(NO)C1(S(=O)(=O)c2ccc(N3CCN(c4ccc(Cl)cc4)CC3)cc2)CCOCC1")
8.43
>>> value("Cc1ccc(N2CCN(c3ccc(S(=O)(=O)C4(C(=O)NO)CCOCC4)cc3)CC2)c(C)c1")
5.85
>>> value("COc1ccccc1C1CCN(c2ccc(S(=O)(=O)C3(C(=O)NO)CCOCC3)cc2)CC1")
5.43

1: O=C(NO)C1(S(=O)(=O)c2ccc(N3CCN(c4ccccc4)CC3)cc2)CCN(C2CC2)CC1
2: C#CCN1CCC(C(=O)NO)(S(=O)(=O)c2ccc(Sc3ccccc3)cc2)CC1
(Q) API: POST /compare with 1 and 2 ; response names the item with higher pIC50. Write down the label attached to your selection.
(A) 2
(2: 9.48, 1: 8.27)

* * *

// IC50 collected for Collagenase 3 (Homo sapiens, UniProt P45452)
measurement_label: IC50 (nM)

Here's what some known entries look like.
>>> value("COc1ccc(N2CCN(c3ccc(S(=O)(=O)C4(C(=O)NO)CCN(C5CC5)CC4)cc3)CC2)cc1")
0.42
>>> value("O=C(NO)C1(S(=O)(=O)c2ccc(N3CCN(c4cccc(C(F)(F)F)c4)CC3)cc2)CCOCC1")
20
>>> value("O=C(NO)C1(S(=O)(=O)c2ccc(N3CCN(c4ccc(C(F)(F)F)cc4)CC3)cc2)CCOCC1")
0.6

A: COc1ccccc1C1CCN(c2ccc(S(=O)(=O)C3(C(=O)NO)CCOCC3)cc2)CC1
B: Cc1ccccc1C1CCN(c2ccc(S(=O)(=O)C3(C(=O)NO)CCOCC3)cc2)CC1
C: COc1ccc(C(C)C)cc1C1CCN(c2ccc(S(=O)(=O)C3(C(=O)NO)CCOCC3)cc2)CC1
D: O=C(NO)C1(S(=O)(=O)c2ccc(N3CCN(c4ccc(C(F)(F)F)cc4)CC3)cc2)CCN(C2CC2)CC1
(Q) Ascending by IC50, please: list the compounds accordingly. List the labels in the requested order.
(A) D, A, B, C
(D: 2.4 nM, A: 17.5 nM, B: 32.7 nM, C: 70 nM)

* * *

This listing pairs molecules with measured half-life.
test: Half life in rat; assay type: ADME, organism-based; conditions: in vivo
Return type: number; implicit unit h.

>>> value("COc1ccc(N2CCN(c3ccc(S(=O)(=O)C4(C(=O)NO)CCN(C5CC5)CC4)cc3)CC2)cc1")
0.24

(Q) For the molecule shown here, O=C(NO)C1(S(=O)(=O)c2ccc(N3CCN(c4ccc(C(F)(F)F)cc4)CC3)cc2)CCOCC1 , give the reported half-life.
(A) 2.59

(Q) And O=C(NO)C1(S(=O)(=O)c2ccc(N3CCN(c4ccc(Cl)cc4)CC3)cc2)CCOCC1 ?
(A) 1.91

* * *

molecular target: Neutrophil collagenase (Homo sapiens); experiment: Inhibition of MMP8
Sequence (P22894 whole entry): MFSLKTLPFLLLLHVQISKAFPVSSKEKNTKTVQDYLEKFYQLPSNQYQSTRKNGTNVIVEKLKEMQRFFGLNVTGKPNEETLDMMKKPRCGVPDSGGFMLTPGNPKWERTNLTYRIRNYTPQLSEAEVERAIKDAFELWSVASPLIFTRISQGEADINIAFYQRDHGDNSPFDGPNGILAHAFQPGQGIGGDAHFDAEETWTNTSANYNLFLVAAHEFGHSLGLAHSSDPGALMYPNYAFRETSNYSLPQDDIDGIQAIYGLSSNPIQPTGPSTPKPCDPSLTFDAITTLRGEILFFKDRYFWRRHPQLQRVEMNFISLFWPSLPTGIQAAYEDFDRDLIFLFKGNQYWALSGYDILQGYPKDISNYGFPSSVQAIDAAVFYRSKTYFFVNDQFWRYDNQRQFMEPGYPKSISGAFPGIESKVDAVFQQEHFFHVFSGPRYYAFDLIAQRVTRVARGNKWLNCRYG
measurement_label: IC50 (nM)

Here's what some known entries look like.
>>> value("O=C(NO)C1(S(=O)(=O)c2ccc(N3CCN(c4ccc(C(F)(F)F)cc4)CC3)cc2)CCOCC1")
670
>>> value("COc1ccc(N2CCN(c3ccc(S(=O)(=O)C4(C(=O)NO)CCN(C5CC5)CC4)cc3)CC2)cc1")
59.2

I: O=C(NO)C1(S(=O)(=O)c2ccc(N3CCN(c4ccc(Cl)cc4)CC3)cc2)CCOCC1
II: C#CCN1CCC(C(=O)NO)(S(=O)(=O)c2ccc(Sc3ccccc3)cc2)CC1
(Q) API: POST /compare with I and II ; response names the item with higher IC50. Write down the label attached to your selection.
(A) I

* * *

experiment: Oral bioavailability in rat; format: ADME, organism-based; details: in vivo
measurement_label: bioavailability (%)
Return type: number; implicit unit %.

>>> value("O=C(NO)C1(S(=O)(=O)c2ccc(N3CCN(c4ccc(C(F)(F)F)cc4)CC3)cc2)CCOCC1")
16.3

(Q) For the compound shown here, COc1ccc(N2CCN(c3ccc(S(=O)(=O)C4(C(=O)NO)CCN(C5CC5)CC4)cc3)CC2)cc1 , give the reported bioavailability.
(A) 20.7

(Q) And O=C(NO)C1(S(=O)(=O)c2ccc(N3CCN(c4ccc(Cl)cc4)CC3)cc2)CCOCC1 ?
(A) 7.4

* * *

assay: Selectivity ratio of IC50 for MMP2 to IC50 for MMP13
measurement_label: Ratio IC50

Here's what some known entries look like.
>>> value("O=C(NO)C1(S(=O)(=O)c2ccc(N3CCN(c4ccc(C(F)(F)F)cc4)CC3)cc2)CCN(C2CC2)CC1")
13.6
>>> value("O=C(NO)C1(S(=O)(=O)c2ccc(N3CCN(c4ccccc4)CC3)cc2)CCN(C2CC2)CC1")
1.6
>>> value("COc1cccc(N2CCN(c3ccc(S(=O)(=O)C4(C(=O)NO)CCOCC4)cc3)CC2)c1")
6.1
>>> value("O=C(NO)C1(S(=O)(=O)c2ccc(N3CCC(c4ccccc4Cl)CC3)cc2)CCOCC1")
1.9
>>> value("O=C(NO)C1(S(=O)(=O)c2ccc(N3CCC(c4ccccc4-c4ccc(F)cc4)CC3)cc2)CCOCC1")
160

1: O=C(NO)C1(S(=O)(=O)c2ccc(N3CCC(c4cccc5ccccc45)CC3)cc2)CCOCC1
2: COc1ccccc1N1CCN(c2ccc(S(=O)(=O)C3(C(=O)NO)CCOCC3)cc2)CC1
(Q) API: POST /compare with 1 and 2 ; response names the item with higher Ratio IC50. Write down the label attached to your selection.
(A) 1
(1: 43.9, 2: 2.8)

A: O=C(NO)C1(S(=O)(=O)c2ccc(N3CCN(c4cccc(C(F)(F)F)c4)CC3)cc2)CCOCC1
B: O=C(NO)C1(S(=O)(=O)c2ccc(N3CCC(c4ccc(Cl)cc4)CC3)cc2)CCOCC1
(Q) Which has the smaller recorded Ratio IC50, A or B ? Write down the label attached to your selection.
(A) B

* * *

This listing pairs molecules with measured IC50.
molecular target: Interstitial collagenase (Homo sapiens)
Sequence (P03956 whole entry): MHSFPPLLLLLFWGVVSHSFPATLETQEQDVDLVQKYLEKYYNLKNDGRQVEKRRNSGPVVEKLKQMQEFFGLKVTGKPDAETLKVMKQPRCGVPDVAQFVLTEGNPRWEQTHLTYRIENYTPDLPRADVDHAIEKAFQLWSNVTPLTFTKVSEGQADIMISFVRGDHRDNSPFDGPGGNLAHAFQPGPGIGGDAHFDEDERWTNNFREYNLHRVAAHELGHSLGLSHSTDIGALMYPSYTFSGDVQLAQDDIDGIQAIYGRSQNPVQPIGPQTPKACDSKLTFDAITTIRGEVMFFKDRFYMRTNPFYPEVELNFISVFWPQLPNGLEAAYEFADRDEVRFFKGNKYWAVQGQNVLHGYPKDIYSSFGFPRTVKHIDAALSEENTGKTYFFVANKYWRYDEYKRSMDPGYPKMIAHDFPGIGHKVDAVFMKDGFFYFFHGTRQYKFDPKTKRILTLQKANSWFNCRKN

Here's what some known entries look like.
>>> value("O=C(NO)C1(S(=O)(=O)c2ccc(N3CCN(c4ccc(Cl)cc4)CC3)cc2)CCOCC1")
"> 10 µM"
>>> value("COc1ccc(N2CCN(c3ccc(S(=O)(=O)C4(C(=O)NO)CCN(C5CC5)CC4)cc3)CC2)cc1")
"> 10 µM"

(Q) Give IC50 (Interstitial collagenase (Homo sapiens)) of the following molecule: C#CCN1CCC(C(=O)NO)(S(=O)(=O)c2ccc(Sc3ccccc3)cc2)CC1
(A) 8.66 µM

(Q) And O=C(NO)C1(S(=O)(=O)c2ccc(N3CCN(c4ccc(C(F)(F)F)cc4)CC3)cc2)CCOCC1 ?
(A) > 10 µM

* * *

test: Selectivity ratio of IC50 for MMP2 to IC50 for MMP13
measurement_label: Ratio IC50

Here's what some known entries look like.
>>> value("COc1ccc(OC)c(C2CCN(c3ccc(S(=O)(=O)C4(C(=O)NO)CCOCC4)cc3)CC2)c1")
70.2
>>> value("O=C(NO)C1(S(=O)(=O)c2ccc(N3CCC(c4ccccc4)CC3)cc2)CCOCC1")
0.7
>>> value("Cc1ccc(N2CCN(c3ccc(S(=O)(=O)C4(C(=O)NO)CCOCC4)cc3)CC2)c(C)c1")
49

a: Cc1ccc(N2CCN(c3ccc(S(=O)(=O)C4(C(=O)NO)CCOCC4)cc3)CC2)cc1
b: COc1ccc(C2CCN(c3ccc(S(=O)(=O)C4(C(=O)NO)CCOCC4)cc3)CC2)c(C)c1
c: COc1ccc(C(C)C)cc1C1CCN(c2ccc(S(=O)(=O)C3(C(=O)NO)CCOCC3)cc2)CC1
d: COc1ccc(N2CCN(c3ccc(S(=O)(=O)C4(C(=O)NO)CCOCC4)cc3)CC2)cc1
e: O=C(NO)C1(S(=O)(=O)c2ccc(N3CCN(c4ccccc4F)CC3)cc2)CCOCC1
(Q) Ranking field: Ratio IC50; order: falling. List the labels in the requested order.
(A) c, b, d, a, e

* * *

test: Selectivity ratio of IC50 for MMP2 to IC50 for MMP13
measurement_label: Ratio IC50

Here's what some known entries look like.
>>> value("O=C(NO)C1(S(=O)(=O)c2ccc(N3CCN(c4ccccc4Cl)CC3)cc2)CCOCC1")
4.4
>>> value("COc1ccc(C2CCN(c3ccc(S(=O)(=O)C4(C(=O)NO)CCOCC4)cc3)CC2)c(OC)c1")
159
>>> value("Cc1ccccc1C1CCN(c2ccc(S(=O)(=O)C3(C(=O)NO)CCOCC3)cc2)CC1")
21.4
>>> value("Cc1ccccc1N1CCN(c2ccc(S(=O)(=O)C3(C(=O)NO)CCOCC3)cc2)CC1")
11.4
>>> value("COc1ccccc1C1CCN(c2ccc(S(=O)(=O)C3(C(=O)NO)CCOCC3)cc2)CC1")
211
>>> value("CCOc1ccccc1C1CCN(c2ccc(S(=O)(=O)C3(C(=O)NO)CCOCC3)cc2)CC1")
88.6
>>> value("O=C(NO)C1(S(=O)(=O)c2ccc(N3CCC(c4ccccc4C(F)(F)F)CC3)cc2)CCOCC1")
31.3

A: O=C(NO)C1(S(=O)(=O)c2ccc(N3CCN(c4ccccc4)CC3)cc2)CCOCC1
B: O=C(NO)C1(S(=O)(=O)c2ccc(N3CCC(c4ccccc4O)CC3)cc2)CCOCC1
(Q) API: POST /compare with A and B ; response names the item with higher Ratio IC50. Write down the label attached to your selection.
(A) A
